# Lookup of reported OD450nm keyed by entry
target: HRgpA-6H (Porphyromonas gingivalis) (UniProt P28784); assay: ELISA, Fab FASEBA supernatant on coated HRgpA-6H

{"columns": ["binder", "OD450nm, OD450nm"],
 "data": [
  ["parental mouse (KB001) Fab FASEBA, VL variant Y97I (Fab, V domains shown) VH: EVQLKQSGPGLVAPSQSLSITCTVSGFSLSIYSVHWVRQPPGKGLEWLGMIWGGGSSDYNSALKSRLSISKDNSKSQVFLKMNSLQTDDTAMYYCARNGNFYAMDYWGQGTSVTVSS VL: QIVLTQSPAIMSASLGERVTMTCTASSSVSSSFLHWYQQKPGSSPQLWIYSTSNLASGVPARFSGSGSGTSYSLTISSMEAEDAATYYCHQYHHSPIIYTFGGGTKLEIK", 0.667],
  ["parental mouse (KB001) Fab FASEBA, VL variant L55S (Fab, V domains shown) VH: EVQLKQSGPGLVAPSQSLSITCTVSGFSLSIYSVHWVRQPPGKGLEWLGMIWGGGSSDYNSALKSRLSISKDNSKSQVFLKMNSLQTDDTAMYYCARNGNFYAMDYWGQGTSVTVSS VL: QIVLTQSPAIMSASLGERVTMTCTASSSVSSSFLHWYQQKPGSSPQLWIYSTSNSASGVPARFSGSGSGTSYSLTISSMEAEDAATYYCHQYHHSPYIYTFGGGTKLEIK", 0.655]
]}
